Recorded values, source the SangsterLogP compilation.

Assay metric: logP

1) CCSC(C)CC1CC(=O)C(/C(CC)=N/OC/C=C/Cl)=C(O)C1 (configuration not stated) = 4.19
2) CCOC(=O)C(Cl)Cc1cc(-n2nc(C)n(C(F)F)c2=O)c(F)cc1Cl (configuration not stated) = 3.36
3) CCOc1nc(C(Cl)(Cl)Cl)ns1 = 3.37
4) COC(C)(C)CCCC(C)C/C=C/C(C)=C/C(=O)OC(C)C (configuration not stated) = 5.21
5) CCC(=O)Nc1ccc(Cl)c(Cl)c1 = 3.3

Record CCCCOC(=O)N(C)SN(C)C(=O)Oc1cccc2c1OC(C)(C)C2 , field logP: 4.6

Form field logP, entry COCCN(C(=O)CCl)c1c(C)cccc1C : 2.2

Lookup result for C/C=C\COCN(C(=O)CCl)c1c(CC)cccc1CC ; measured logP: 3.51

Documented logP of CCSCCSP(=S)(OC)OC : 3.46

get_value(item= C[C@@H](Oc1ccc(Oc2ccc(C#N)cc2F)cc1)C(=O)O , readout=logP) returns 3.31

Sure, the documented logP for CN(C)C(=O)Nc1ccc(Cl)c(Cl)c1 is 2.85

Data point: O=C(NC(=O)c1ccccc1Cl)Nc1ccc(OC(F)(F)F)cc1 ; logP = 4.91

---

conditions: pH 7.3
Assay metric: logD
I'd appreciate a reply containing only the number, no unit.

Reported logD of O=C(Nc1ccccc1)Nc1cnns1 : 1.77

---

Assay metric: logP
No unit in the answer, please; the number alone is enough.

The following compounds have reported results that may help.
1) COCC(=O)N(c1c(C)cccc1C)N1CCOC1=O = 0.73
2) COC(=O)c1c(C(F)F)nc(C(F)(F)F)c(C2=NCCS2)c1CC(C)C = 3.89
3) COc1ccsc1CN(C(=O)CCl)c1c(C)cccc1C = 3.53
4) CC1(C)[C@H](C(=O)O[C@H](C#N)c2cccc(Oc3ccccc3)c2)[C@@H]1/C=C\C(=O)OC(C(F)(F)F)C(F)(F)F = 5.26

Entry CCCCCCCCn1sccc1=O , logP reported as 2.45

Lookup result for CC(C)(C)C(O)/C(=C\c1ccc(Cl)cc1)n1cncn1 (stereo unspecified) ; measured logP: 3.67

According to the records, this compound FC(F)C(F)(F)OCC(Cn1cncn1)c1ccc(Cl)cc1Cl (stereo unspecified) displays logP of 3.53

Value of logP reported for the compound O=C(Nc1ccccc1)Nc1ccnc(Cl)c1 is 3.2

CC1(C)OC(c2ccco2)CN1C(=O)C(Cl)Cl (stereo unspecified) has a reported logP of 2.12

logP for CCS(=O)(=O)Oc1ccc2c(c1)C(C)(C)CO2 is 2.41

Per the record, C#CCC1=C(C)C(OC(=O)C2C(C=C(C)C)C2(C)C)CC1=O (stereo unspecified) has logP of 4.49

For CCOC(=O)Cn1c(=O)sc2cccc(Cl)c21 the compound record lists logP as 2.5

Note to self: logP recorded for CCCCCC(C)OC(=O)COc1ccc(Cl)c2cccnc12 (stereo unspecified) was 5.03

compound Clc1ccc(C2(Cn3cncn3)CC(Br)CO2)c(Cl)c1 (stereo unspecified) , logP observed: 3.24

---

Please respond with 1 when measured logP is strictly beneath 4, and with 0 in all other cases.

Example entries and their recorded answers appear below.
1) CC1(C)CON(Cc2ccccc2Cl)C1=O = 1
2) Clc1ccccc1-c1nnc(-c2ccccc2Cl)nn1 = 1
3) COP(=S)(OC)Oc1ccc(C#N)cc1 = 1
4) CC1=NNC(=O)N(/N=C/c2cccnc2)C1 = 1
5) CCCCC(CC)CN1C(=O)C2C3C=CC(C3)C2C1=O (stereo unspecified) = 1

is_below(logP, 4) for CCNc1nc(Cl)nc(NCC)n1 ?
1

# strict comparison: is reported logP < 4? input = O=C1c2ccccc2C(=O)N1SC(Cl)(Cl)Cl
1

Does CC(C)c1cc(Oc2ccccc2)cc(C(C)C)c1NC(=S)NC(C)(C)C have logP strictly under 4?
0

---

conditions: pH 6.1
Assay metric: logD
Could you keep your reply to the number by itself?

Sample Cc1cc(C)nc(Nc2ccccc2)n1 ; logD observed: 2.84

---

Assay metric: logP
# respond with the number and nothing more

The compound listed as Cc1ccc2nc3sc(=O)sc3nc2c1 shows logP equal to 3.78

Lab note: measured logP of O=C(NC(=O)c1c(F)cccc1F)Nc1cc(Cl)c(OC(F)(F)C(F)C(F)(F)F)cc1Cl (configuration not stated) was 5.12

---

logP values, listed per item
Please reply with the value in numeric form only.

Worked cases, logP given:
1. CCCCOC(=O)[C@@H](C)Oc1ccc(Oc2ccc(C(F)(F)F)cn2)cc1 = 4.5
2. CC(C)=CC1C(C(=O)OCc2coc(Cc3ccccc3)c2)C1(C)C (stereo not drawn) = 5.4
3. CCCOC(=O)c1ccc(C(=O)OCCC)nc1 = 3.57
4. C=CCN(CC=C)C(=O)C(Cl)Cl = 1.84

logP reading for COP(=S)(OC)Oc1ccc(Sc2ccc(OP(=S)(OC)OC)cc2)cc1 : 4.91

Entry under test: CCOC(=O)c1cn2nc(OP(=S)(OCC)OCC)cc2nc1C . Its logP was 3.8

Entry CCN(CC)C(=O)SCc1ccccc1Cl , logP reported as 3.43

So for CC1(C)CC/C(=C\c2ccc(Cl)cc2)C1(O)Cn1cncn1 (stereo not drawn) , the logged logP turned out to be 3.29

Documented logP of COC(=O)c1c(Cl)c(Cl)c(C(=O)OC)c(Cl)c1Cl : 4.28

Memo: COCC(C)N(C(=O)CCl)c1c(C)csc1C (stereo not drawn) , reported logP: 2.15

Measured logP, CCOP(=S)(OCC)Oc1ccc(=O)n(-c2ccccc2)n1 : 3.2

Summary for this compound, CC(C)N(Cc1ccccc1)C(=O)C(C)(C)C : logP is 3

logP measured on CC1COc2ccccc2N1C(=O)C(Cl)Cl (stereo not drawn) = 2.7

The compound listed as CCCCC(CC)N1C(=O)C2C3C=CC(C3)C2C1=O (stereo not drawn) shows logP equal to 3.8

Entry CCOc1ccc(C2(C(=O)OC(C#N)c3cccc(Oc4ccccc4)c3)CC2(Cl)Cl)cc1 (stereo not drawn) , logP reported as 4.19

The compound identified as CC(Oc1ccc(Oc2ncc(Cl)cc2Cl)cc1)C(=O)N1CCCO1 (stereo not drawn) registered its logP at 3.36

// sample O=C1C(Cl)=C(Cl)C(=O)N1c1ccc(F)cc1 , its logP was 2.3

According to the records, this compound CC(C)NC(=O)N1CC(=O)N(c2cc(Cl)cc(Cl)c2)C1=O displays logP of 3

---

Entries and their measured logP follow.
Answer with a number only.

1. CCCN(CCC)C(=O)SCc1ccccc1 = 4.65

According to the records, this compound CC(Oc1ccc(Oc2cnc3cc(Cl)ccc3n2)cc1)C(=O)OCC1CCCO1 (stereo not given) displays logP of 4.32

The compound identified as CCN(Cc1c(F)cccc1Cl)c1c([N+](=O)[O-])cc(C(F)(F)F)cc1[N+](=O)[O-] registered its logP at 5.45

Consider CNC(=O)CSP(=O)(OC)OC . Its measured logP is -0.75

Reported logP ( [O-][n+]1nc(-n2ccnc2)nc2ccc(Cl)cc21 ) = 2.04

Sure, the documented logP for CCCN(CCC)c1c([N+](=O)[O-])cc(C(F)(F)F)c(N)c1[N+](=O)[O-] is 4.1

---

Assay metric: logP
Would you mind answering with just the numeric figure?

Past entries and their recorded results:
1) C#CCOC(=O)[C@@H](C)Oc1ccc(Oc2ncc(Cl)cc2F)cc1 = 3.9
2) C/C(=N\C#N)N(C)Cc1ccc(Cl)nc1 = 0.8
3) CC1=C(C)S(=O)(=O)CCS1(=O)=O = -0.17

Summary for this compound, CCOP(=S)(OCC)OC(Cl)C(Cl)(Cl)Cl (centres undefined) : logP is 4.59
